# TEST SYSTEM: Bcl-2 protein (Recombinant Human Bcl-2 Protein) (Homo sapiens, UniProt P10415)
# Construct: purchased Novus NBP2-34889
# Sequence (P10415 whole entry): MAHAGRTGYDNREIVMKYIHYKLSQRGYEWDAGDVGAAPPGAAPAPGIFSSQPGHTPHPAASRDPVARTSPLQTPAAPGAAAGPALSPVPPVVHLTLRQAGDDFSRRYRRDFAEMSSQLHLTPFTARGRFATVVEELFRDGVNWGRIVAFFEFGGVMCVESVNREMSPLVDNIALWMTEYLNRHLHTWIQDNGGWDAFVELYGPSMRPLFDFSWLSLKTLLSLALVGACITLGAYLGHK
# METHOD DESCRIPTION: Binding evaluation of mixture library compounds to Bcl-2 using AS-MS (affinity selection mass spectrometry)
# CONDITION: n = 1
MEASUREMENT KIND: ASMS ratio (%)

CCOc1cncc(-c2ccc(CN3CCN(c4ccc(C(=O)NS(=O)(=O)c5ccc(NCCSc6ccccc6)c(C(F)(F)F)c5)cc4)CC3)cc2C)c1; 9.2%
CCOc1cccc(-c2cc(CN3CCN(c4ccc(C(=O)NS(C)(=O)=O)cc4)CC3)cc(C(F)(F)F)c2)c1; −0.8%
CCOc1cccc(-c2ccc(CN3CCN(c4ccc(C(=O)NS(C)(=O)=O)cc4)CC3)c3ccccc23)c1; 0.0%
CCOc1cncc(-c2ccc(CN3CCN(c4ccc(C(=O)NS(=O)(=O)C(C)(C)C)nn4)CC3)cc2C)c1; −1.0%
CCOc1cncc(-c2cc(CN3CCN(c4ccc(C(=O)NS(C)(=O)=O)nn4)CC3)cc(OC(F)(F)F)c2)c1; 0.0%
CCOc1cccc(-c2ccc(CN3CCN(c4ccc(C(=O)NS(=O)(=O)C(C)(C)C)cc4)CC3)c(OC)c2)c1; 0.0%
CCOc1cccc(-c2cc(CN3CCN(c4ccc(C(=O)NS(=O)(=O)c5ccc(NCCSc6ccccc6)c(C(F)(F)F)c5)nn4)CC3)cc(OC(C)C)c2)c1; 31.9%
